Exercise: for every item that follows, state its recorded KINOMEscan: EPHB6.
# TESTED_TARGET: panel of 442 kinases (Homo sapiens)
# Construct: purchased KINOMEscan
# Sequence (O15197 32-1021): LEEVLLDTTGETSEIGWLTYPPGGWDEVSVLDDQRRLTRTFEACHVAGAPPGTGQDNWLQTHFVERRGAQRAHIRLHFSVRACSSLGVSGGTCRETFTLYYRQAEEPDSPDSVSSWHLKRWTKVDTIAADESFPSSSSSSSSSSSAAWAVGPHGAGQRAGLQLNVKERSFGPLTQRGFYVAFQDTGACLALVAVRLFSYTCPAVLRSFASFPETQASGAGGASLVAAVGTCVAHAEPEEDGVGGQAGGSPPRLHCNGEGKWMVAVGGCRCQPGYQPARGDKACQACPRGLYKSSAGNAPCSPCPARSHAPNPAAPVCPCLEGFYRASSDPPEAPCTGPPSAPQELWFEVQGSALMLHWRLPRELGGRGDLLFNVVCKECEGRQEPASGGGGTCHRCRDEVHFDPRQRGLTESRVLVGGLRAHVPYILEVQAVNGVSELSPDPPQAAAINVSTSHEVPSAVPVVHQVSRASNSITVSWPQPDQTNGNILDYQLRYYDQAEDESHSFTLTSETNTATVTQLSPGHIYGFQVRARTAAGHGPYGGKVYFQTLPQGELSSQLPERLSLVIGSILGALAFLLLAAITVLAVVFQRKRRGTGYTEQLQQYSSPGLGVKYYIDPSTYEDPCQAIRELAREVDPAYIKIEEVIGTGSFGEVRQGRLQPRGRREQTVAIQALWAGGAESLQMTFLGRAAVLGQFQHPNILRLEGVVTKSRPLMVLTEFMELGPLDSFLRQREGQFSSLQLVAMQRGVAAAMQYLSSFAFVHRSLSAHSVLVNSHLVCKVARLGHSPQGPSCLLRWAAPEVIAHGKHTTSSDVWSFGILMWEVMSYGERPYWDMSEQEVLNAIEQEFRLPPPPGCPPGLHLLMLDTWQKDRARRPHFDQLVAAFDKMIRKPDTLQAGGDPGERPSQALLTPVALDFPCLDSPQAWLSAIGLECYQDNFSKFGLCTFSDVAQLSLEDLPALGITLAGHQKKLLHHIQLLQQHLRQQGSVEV
# Type: binding
# TEST_SETTINGS: Compound Concentration 10 µM
Could you keep your reply to the number by itself?

*Q* Quick check: KINOMEscan: EPHB6 of COc1cc(C(=O)N2CCC(N3CCN(C)CC3)CC2)ccc1Nc1ncc2c(n1)N(C1CCCC1)c1ccccc1C(=O)N2C ?
*A* 69

*Q* What do we get for COc1cc(C(=O)N2CCC(N3CCN(C)CC3)CC2)ccc1Nc1ncc2c(n1)N(C)c1ccccc1C(=O)N2C ?
*A* 31

*Q* What do we get for COc1cc(C(=O)N2CCC(N3CCN(C)CC3)CC2)ccc1Nc1ncc2c(n1)N1CCc3cccc(c31)C(=O)N2C ?
*A* 68

*Q* What do we get for CCOc1cc(C(=O)N2CCC(N3CCN(C)CC3)CC2)ccc1Nc1ncc2c(n1)N(C1CCCC1)c1ccccc1C(=O)N2C ?
*A* 100

====

Exercise: for every item that follows, state its recorded KINOMEscan: RIOK2.
# TESTED_TARGET: panel of 442 kinases (Homo sapiens, UniProt Q9BVS4)
# Construct: purchased KINOMEscan
# Sequence (Q9BVS4 whole entry): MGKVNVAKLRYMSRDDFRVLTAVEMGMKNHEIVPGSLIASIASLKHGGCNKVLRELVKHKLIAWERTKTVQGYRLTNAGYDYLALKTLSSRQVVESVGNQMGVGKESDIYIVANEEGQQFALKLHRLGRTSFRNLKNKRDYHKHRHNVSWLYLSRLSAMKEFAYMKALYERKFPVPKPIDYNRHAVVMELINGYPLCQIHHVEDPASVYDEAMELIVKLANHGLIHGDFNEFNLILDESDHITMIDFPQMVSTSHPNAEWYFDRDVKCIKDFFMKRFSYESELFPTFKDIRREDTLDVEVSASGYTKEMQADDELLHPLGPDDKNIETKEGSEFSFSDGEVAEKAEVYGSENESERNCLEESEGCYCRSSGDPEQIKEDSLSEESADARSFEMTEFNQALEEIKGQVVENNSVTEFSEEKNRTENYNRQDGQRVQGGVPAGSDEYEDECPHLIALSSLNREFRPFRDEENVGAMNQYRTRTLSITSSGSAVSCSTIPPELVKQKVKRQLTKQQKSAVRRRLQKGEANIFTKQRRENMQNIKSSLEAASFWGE
# Assay type: binding
# TEST_SETTINGS: Compound Concentration 10 µM

*Q* Quick check: KINOMEscan: RIOK2 of COc1cc(C(=O)N2CCC(N3CCN(C)CC3)CC2)ccc1Nc1ncc2c(n1)N1CCc3cccc(c31)C(=O)N2C ?
*A* 81

*Q* What do we get for COc1cc(C(=O)N2CCC(N3CCN(C)CC3)CC2)ccc1Nc1ncc2c(n1)N(C)c1ccccc1C(=O)N2C ?
*A* 100

*Q* What do we get for COc1cc(C(=O)N2CCC(N3CCN(C)CC3)CC2)ccc1Nc1ncc2c(n1)N(C1CCCC1)c1ccccc1C(=O)N2C ?
*A* 93

*Q* What do we get for CCOc1cc(C(=O)N2CCC(N3CCN(C)CC3)CC2)ccc1Nc1ncc2c(n1)N(C1CCCC1)c1ccccc1C(=O)N2C ?
*A* 81

This collection of values is drawn from paper PMC3914206.
